- ASSAY_PROCEDURE: basal RPMI8226 viability, no added stimulus, profiling panel, cell-based, calcein-AM fluorescence, 48 h, PK04 Diversity Set (AID 1166);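 note: cells grown under basal conditions without added stimulus; test concentration not given here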
- EXPERIMENTAL_CONDITIONS: RPMI8226 myeloma viability, higher = more signal
Reported z-score values follow for various molecules

As a guide, the following entries are already answered.
* COc1cc2c(cc1OC)CN(C(=O)[C@H]1[C@@H]3C(=O)O[C@@H](c4ccccc4)[C@@H](c4ccccc4)N3[C@@H](c3ccc(O)cc3)[C@]13C(=O)Nc1ccc(C#CC4(O)CCCCCC4)cc13)CC2 | -0.66
* CC/C=C/C(=O)N(C[C@@H]1CCCO1)[C@@H]1CC(C(=O)NCCO)=C[C@H](Oc2c(I)cc(CO)cc2OC)[C@H]1O | 0.587
* Cc1ccc(S(=O)(=O)c2cc3oc2CC[C@@H](CO)NC(=O)N(C)Cc2cn(nn2)C[C@H](Cc2ccccc2)NC3=O)cc1 | 1.28
* CN(C)CCCC[C@@H]1NC(=O)[C@@H]2C[C@H](C(=O)NCCCCCNC(=O)CS)[C@H](c3ccc(O)cc3)N2C1=O | 0.262

Short answer for C=CCC(OC(C)=O)[C@@H]1[C@@H](N(Cc2ccc(-c3cccc(C(F)(F)F)c3)o2)C(=O)Cc2ccc(F)cc2)c2cc(OCCCO)ccc2N1C(=O)c1ccc(-c2ccccc2)cc1 (some centres not stated) : z-score was -0.147

Form: molecule = C[C@H]1COC(=O)[C@@H]2CCCN2C(=O)[C@@H](C)COC(=O)[C@@H]2CCCN2C1=O ; z-score = -0.0243

The recorded z-score for CCc1cccc(NC(=O)O[C@H]2[C@H](OC(=O)Nc3ccccc3)[C@@H](OC(=O)Nc3ccccc3)[C@@H](OC)O[C@@H]2CO)c1 is -4.29

Looking up O=C1O[C@H](c2ccccc2)[C@H](c2ccccc2)N2[C@H]1[C@@H](C(=O)Nc1nc3ccccc3s1)[C@]1(C(=O)Nc3ccc(C#CC4(O)CCCCCC4)cc31)[C@H]2c1ccc(O)cc1 , I see its z-score listed as -4.08

Entry CO[C@H]1COC(=O)CC=C[C@H](C)COC(=O)[C@@H](OCc2ccccc2)C=C[C@@H]1C ; z-score = -1.73

Notebook: COc1ccc([Si](C)(C)[C@@H]2[C@@H](CCO)O[C@]3(C(=O)N(Cc4ccccc4)c4ccccc43)[C@H]2C)cc1 , z-score read as -2.05
